Please provide measured IC50 for the entries that follow.
# Tested Target: Recombinant human MEK 1 (MAPKK) / recombinant human ERK2 (MAPK) (Mek-Erk) (Homo sapiens, UniProt P28482+Q02750)
# Sequence (P28482 2-360): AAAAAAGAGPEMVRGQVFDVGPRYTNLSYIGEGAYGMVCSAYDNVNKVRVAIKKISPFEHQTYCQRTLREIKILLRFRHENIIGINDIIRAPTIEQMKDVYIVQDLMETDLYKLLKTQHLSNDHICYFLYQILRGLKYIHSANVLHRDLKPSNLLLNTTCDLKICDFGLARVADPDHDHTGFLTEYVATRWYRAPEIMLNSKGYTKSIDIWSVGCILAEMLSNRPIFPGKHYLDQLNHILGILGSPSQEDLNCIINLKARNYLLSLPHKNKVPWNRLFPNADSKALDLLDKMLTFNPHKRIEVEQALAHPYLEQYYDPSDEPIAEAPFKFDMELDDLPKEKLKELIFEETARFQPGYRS
# Sequence (Q02750 whole entry): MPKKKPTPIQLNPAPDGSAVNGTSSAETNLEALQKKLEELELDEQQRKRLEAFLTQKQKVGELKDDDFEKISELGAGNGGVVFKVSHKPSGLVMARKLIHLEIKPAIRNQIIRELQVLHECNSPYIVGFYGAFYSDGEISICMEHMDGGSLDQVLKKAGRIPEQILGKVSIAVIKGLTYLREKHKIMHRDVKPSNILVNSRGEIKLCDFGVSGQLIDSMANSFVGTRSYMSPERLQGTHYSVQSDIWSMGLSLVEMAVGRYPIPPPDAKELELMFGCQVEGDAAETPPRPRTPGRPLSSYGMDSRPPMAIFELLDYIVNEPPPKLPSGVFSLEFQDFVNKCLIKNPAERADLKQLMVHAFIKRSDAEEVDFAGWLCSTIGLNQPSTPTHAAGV
# Protocol Summary: Mitogen Activated Protein Kinase (MAPK) assay, two component coupled Mek-Erk test
# Assay type: biochemical
# Reported Conditions: read-out: Mek-Erk

Please review the following examples before continuing.
| Molecule | Experimental Value |
| --- | --- |
| COc1ccc2c(Nc3ccc4[nH]ccc4c3)c(C#N)cnc2c1 [Example 146] | 3 µM |
| COc1cc2ncc(C#N)c(Nc3ccc4ncccc4c3)c2cc1OC [Example 153] | > 100 µM |
| COc1cc2ncc(C#N)c(Nc3ccc4sc(C)nc4c3)c2cc1OC [Example 130] | > 100 µM |
| COc1cc2c(Nc3ccc4cn[nH]c4c3)c(C#N)cnc2cc1OCCN(C)C [Example 167] | 8 µM |
| CCOc1cc2ncc(C#N)c(Nc3ccc4c(c3)S(=O)(=O)C=C4)c2cc1OCC [Example 112] | > 100 µM |

Report IC50 for each item below.
1. CCOc1cc2ncc(C#N)c(Nc3ccc4c(c3)C(=O)NCC(=O)N4C)c2cc1OCC [Example 127]
2. CCOc1cc2ncc(C#N)c(Nc3ccc4c(C)cc(=O)oc4c3)c2cc1OCC [Example 100]

*A*
["> 100 µM", "3.5 µM"]

Report IC50 for each item below.
1. CCOc1cc2c(Nc3ccc4cn[nH]c4c3)c(C#N)cnc2cc1OC [Example 126]
2. COc1cc2ncc(C#N)c(Nc3ccc4[nH]c(C)nc4c3)c2cc1OC [Example 152]
3. CCOc1cc2ncc(C#N)c(Nc3ccc4c(c3)C(=O)NC4=O)c2cc1OCC [Example 104]
4. COc1cc2ncc(C#N)c(Nc3cccc4cnccc34)c2cc1OC [Example 133]
5. COc1cc2ncc(C#N)c(Nc3ccc(O)c4ncccc34)c2cc1OC [Example 135]
6. COc1cc2ncc(C#N)c(Nc3cccc4c3CCCC4)c2cc1OC [Example 155]
7. COc1ccc(OC)c2c(Nc3ccc4cn[nH]c4c3)c(C#N)cnc12 [Example 138]

*A*
["> 100 µM", "> 100 µM", "35 µM", "90 µM", "> 100 µM", "4 µM", "> 100 µM"]

Report IC50 for each item below.
1. COc1cc2ncc(C#N)c(Nc3ccc4[nH]c(=O)sc4c3)c2cc1OC [Example 131]
2. COc1cc2ncc(C#N)c(Nc3ccc4c(C)cc(=O)[nH]c4c3)c2cc1OC [Example 129]

*A*
1: > 100 µM; 2: > 100 µM
